Tested on: Staphylococcus aureus
Test Details: Bactericidal activity against methicillin resistant Staphylococcus aureus ATCC 33591 assessed as reduction in bacterial growth
Format: functional
One threshold, 8 µg/mL, splits the recorded MBC values: lower ones are T, equal or higher ones are F.

# check: MBC < 8 µg/mL for O=C(O)c1cn(C2CC2)c2cc(N3CCNCC3)c(F)cc2c1=O
T

# check: MBC < 8 µg/mL for Clc1ccc(CN2CCN(Cc3c[nH]c4ccc(Br)cc34)CC2)c(Cl)c1
T

# check: MBC < 8 µg/mL for FC(F)(F)c1ccc(CN2CCN(Cc3c[nH]c4ccc(Br)cc34)CC2)c(N2CCCC2)c1
F

# check: MBC < 8 µg/mL for CO[C@H]1/C=C/O[C@@]2(C)Oc3c(C)c(O)c4c(O)c(c(/C=N/N5CCN(C)CC5)c(O)c4c3C2=O)NC(=O)/C(C)=C\C=C\[C@H](C)[C@H](O)[C@@H](C)[C@@H](O)[C@@H](C)[C@H](OC(C)=O)[C@@H]1C
T
